measured.target: T1, human transferrin receptor (hTfR) (human, UniProt P02786 89-760)
T1 construct: used as 0.5 uM hTfR dimer solution, immobilised on an NTA sensor chip (Ni capture plus EDC/NHS coupling); also called human TfR; TfR1
T1 sequence (P02786 89-760 limits assumed): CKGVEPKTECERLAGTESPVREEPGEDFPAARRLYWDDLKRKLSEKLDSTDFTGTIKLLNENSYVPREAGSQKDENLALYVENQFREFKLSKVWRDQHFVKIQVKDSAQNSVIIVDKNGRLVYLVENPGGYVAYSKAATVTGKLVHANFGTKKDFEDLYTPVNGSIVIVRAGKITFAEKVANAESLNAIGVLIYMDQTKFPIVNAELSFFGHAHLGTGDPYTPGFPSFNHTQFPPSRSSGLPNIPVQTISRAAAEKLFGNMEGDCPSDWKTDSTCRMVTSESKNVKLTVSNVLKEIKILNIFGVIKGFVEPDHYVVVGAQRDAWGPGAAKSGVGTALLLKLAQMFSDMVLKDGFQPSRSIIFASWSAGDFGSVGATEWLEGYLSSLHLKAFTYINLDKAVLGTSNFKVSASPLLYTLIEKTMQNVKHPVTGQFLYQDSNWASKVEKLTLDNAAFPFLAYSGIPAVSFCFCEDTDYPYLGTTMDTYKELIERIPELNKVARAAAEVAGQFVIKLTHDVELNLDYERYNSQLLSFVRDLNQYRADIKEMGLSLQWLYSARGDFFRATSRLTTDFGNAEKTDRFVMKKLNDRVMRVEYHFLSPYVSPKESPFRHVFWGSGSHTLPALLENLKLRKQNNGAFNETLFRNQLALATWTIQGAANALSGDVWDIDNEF
assay.comment: SPR; B = KD 1-100 nM
Starred links: 1 amine or outer side, 2 acyl side, 3 side chain; linkers in the order of their positions; H or OH if unused. Positions of bridges follow the written chain, without caps; N, C: chain ends. Non-standard residues stand in square brackets, D forms with d. No end group written: not given here. F4aao = (S)-2-amino-3-(4-(carboxymethoxy)phenyl)propanoic acid, O=C([C@H](Cc1ccc(OCC(=O)[*:3])cc1)N[*:1])[*:2]; Trp(1-CH2CO) = O=C([C@H](Cc1cn(CC(=O)[*:3])c2ccccc12)N[*:1])[*:2]; Trp(7-aza) = N[C@@H](Cc1c[nH]c2ncccc12)C(=O)O; NMePhe(3-Cl) = CN[C@@H](Cc1cccc(Cl)c1)C(=O)O; NMeY = CN[C@@H](Cc1ccc(O)cc1)C(=O)O; 4Pal = N[C@@H](Cc1ccncc1)C(=O)O
Consider the following binders and their measured KD readings.

Past entries and their recorded results:
- binder: "Ac-AV[NMePhe(3-Cl)]V[Trp(1-CH2CO)]NY[F4aao]IIRR[4Pal][NMeY]C (thioether (positions not given here); not fully specified (C-terminus, bridges)) [894_0343]"
  KD: "1 to 100 nM"
- binder: "AVFVWNYAIIRRAYC (3:MeF3C,8:3Py,13:4Py,14:MeY; linker G-de-de-de-ds-ds-KN3; ClAc-1/C15 thioether ring; C-term NH2) [894_3193]"
  KD: "1 to 100 nM"

Let's switch to this binder now.
Query: Given the entry {CH2CO}-AV[NMePhe(3-Cl)]V[Trp(7-aza)]NY[F4aao]IIQR[4Pal][NMeY]C-NH2 (thioether N-15; also: linker PEG4c, attachment not given here) [894_0424] , report its measured KD.
Reply: 1 to 100 nM
